Answer each item with its documented pIC50.
Target: Aldo-keto reductase family 1 member B1 (Homo sapiens, UniProt P15121)
Assay: Inhibition of recombinant human ALR2 assessed as reduction in NADPH oxidation measured for 5 mins in presence of D,L-glyceraldehyde by spectrophotometric method
# pIC50 = -log10(concentration in molar units)

Query: So what does the record say about pIC50 for CC1=N/C(=C\c2ccc(F)cc2)C(=O)N1CC(=O)O ?
Response: 6.19

Query: So what does the record say about pIC50 for CC1=N/C(=C\c2ccc(Cl)cc2)C(=O)N1CC(=O)O ?
Response: 6.57

Query: So what does the record say about pIC50 for CCOC(=O)CN1C(=O)/C(=C/c2ccc(O)cc2)N=C1C ?
Response: 4.64

Query: So what does the record say about pIC50 for CC1=N/C(=C\c2ccccc2)C(=O)N1CC(=O)O ?
Response: 6.24
